In this section we review reported Emax values for a set of compounds.
Target: APOL1 G1 (Homo sapiens, UniProt O14791, I384M/S342G)
Sequence (O14791 28-398 S342G/I384M): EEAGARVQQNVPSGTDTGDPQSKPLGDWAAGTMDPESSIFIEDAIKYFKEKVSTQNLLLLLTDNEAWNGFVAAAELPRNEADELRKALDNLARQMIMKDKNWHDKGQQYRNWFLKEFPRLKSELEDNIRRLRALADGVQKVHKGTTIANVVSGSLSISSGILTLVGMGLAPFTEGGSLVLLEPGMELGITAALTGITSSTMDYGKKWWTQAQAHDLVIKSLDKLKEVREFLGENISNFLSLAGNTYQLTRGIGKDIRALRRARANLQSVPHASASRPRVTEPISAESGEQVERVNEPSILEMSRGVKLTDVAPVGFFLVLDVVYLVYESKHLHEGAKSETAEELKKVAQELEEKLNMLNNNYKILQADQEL
Test: Trypanosoma brucei brucei Lysis Assay Using APOL1 Recombinant Protein (AlamarBlue viability readout)
Assay type: cell-based
Details: Trypanosome Assay; read-out: Trypanosome Assay Max Activity (%)

| compound | Emax (%) |
| --- | --- |
| C[C@H]1C[C@@]2(C[C@@H](c3cnccc3O)N1)OCCc1cc(Cl)sc12 (racemic) | 97.5 |
| C[C@H]1CC2(C[C@@H](c3cn(C)nn3)N1)OCCc1sc(Cl)cc12 (single isomer, unassigned) | 116 |
| CC1CC2(CC(c3cccc(C#N)c3)N1)OCCc1cc(Cl)sc12 (stereo not shown) | 107 |
| COc1ccc(C2CC3(CC(C)N2)OCCc2cc(Cl)sc23)nc1 (stereo not shown) | 115 |
